Form field: Emax (one value per entry).
# tested.system: human muscarinic M1 receptor (Homo sapiens, UniProt P11229)
# Sequence (P11229 1-460): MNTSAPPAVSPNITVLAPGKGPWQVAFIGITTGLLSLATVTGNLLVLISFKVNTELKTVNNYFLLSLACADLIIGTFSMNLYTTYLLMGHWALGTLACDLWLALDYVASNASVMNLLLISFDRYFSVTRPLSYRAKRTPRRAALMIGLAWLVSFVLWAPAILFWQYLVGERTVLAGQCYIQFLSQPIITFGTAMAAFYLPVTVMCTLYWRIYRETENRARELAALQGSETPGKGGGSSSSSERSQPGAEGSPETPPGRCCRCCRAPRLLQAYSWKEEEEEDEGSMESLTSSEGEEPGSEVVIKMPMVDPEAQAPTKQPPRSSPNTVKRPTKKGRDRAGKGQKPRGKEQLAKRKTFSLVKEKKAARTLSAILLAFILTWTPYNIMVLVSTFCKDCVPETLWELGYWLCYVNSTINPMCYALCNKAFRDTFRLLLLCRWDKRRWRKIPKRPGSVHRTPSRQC
# assay.summary: Alphascreen Surefire phospho-ERK1/2 functional assay, M1
# Type: cell-based
# condition: CHO, read-out: % Emax cf. ACh, M1, CHO cells stably expressing human M1; Emax relative to ACh
Give just the numeric value; % need not be written.

compound	Emax (%)
CCOC(=O)N1CC2CCC1CC2N1CC(OC(=O)N2CCCOCC2)C1 (single isomer, unassigned) [Example 6-5 Isomer 1]	58
CCOC(=O)N1CC2CCC1CC2N1CC(OC(=O)N2CCCCC2)C1 (single isomer, unassigned) [Example 6-3 Isomer 1]	92
CCOC(=O)N1CC2CCC1CC2N1CC(CC(=O)N2CCC23CCC3)C1 (single isomer, unassigned) [Example 2-5 Isomer 1]	64
CCN(CC)C(=O)OC1CN(C2CCC3(C2)CN(C(=O)OC)C3)C1 (single isomer, unassigned) [Example 4-6 Isomer 1]	92

Entry under review: CCOC(=O)N1CC2CCC1CC2N1CC(CC(=O)N(CC)CC)C1 (single isomer, unassigned) [Example 2-1 Isomer 1] . Reported Emax?
67

Look at this compound and give its reported Emax. CCOC(=O)N1CC2CCC1CC2N1CC(CC(=O)N2CCCCC2)C1 (single isomer, unassigned) [Example 2-3 Isomer 1]
88

---

# tested.system: human muscarinic M2 receptor (Homo sapiens, UniProt P08172)
# Sequence (P08172 1-466): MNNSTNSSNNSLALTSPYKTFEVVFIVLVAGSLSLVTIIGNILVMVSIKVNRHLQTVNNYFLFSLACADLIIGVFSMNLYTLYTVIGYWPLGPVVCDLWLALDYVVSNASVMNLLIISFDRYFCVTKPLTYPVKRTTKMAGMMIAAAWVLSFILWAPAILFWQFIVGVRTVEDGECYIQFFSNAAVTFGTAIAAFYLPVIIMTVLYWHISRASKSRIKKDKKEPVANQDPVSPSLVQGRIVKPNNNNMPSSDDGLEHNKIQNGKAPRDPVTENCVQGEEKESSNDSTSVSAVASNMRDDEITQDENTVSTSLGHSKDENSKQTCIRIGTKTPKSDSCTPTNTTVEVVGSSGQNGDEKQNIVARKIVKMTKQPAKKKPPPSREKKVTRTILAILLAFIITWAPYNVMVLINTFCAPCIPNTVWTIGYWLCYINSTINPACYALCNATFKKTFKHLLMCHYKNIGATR
# assay.summary: Alphascreen Surefire phospho-ERK1/2 functional assay, M2
# Type: cell-based
pEC50: −log10 of the molar value.
measurement.type: pEC50

Look at this molecule and give its reported pEC50. CCOC(=O)N1C2CCC1CC(N1CC(OC(=O)N3CCCCCC3)C1)C2 (mixture of isomers) [Example 5-1 Isomer mixture]
< 4.70

---

# tested.system: human muscarinic M4 receptor (Homo sapiens, UniProt P08173)
# Construct: expressed in transfected cells
# Sequence (P08173 1-479): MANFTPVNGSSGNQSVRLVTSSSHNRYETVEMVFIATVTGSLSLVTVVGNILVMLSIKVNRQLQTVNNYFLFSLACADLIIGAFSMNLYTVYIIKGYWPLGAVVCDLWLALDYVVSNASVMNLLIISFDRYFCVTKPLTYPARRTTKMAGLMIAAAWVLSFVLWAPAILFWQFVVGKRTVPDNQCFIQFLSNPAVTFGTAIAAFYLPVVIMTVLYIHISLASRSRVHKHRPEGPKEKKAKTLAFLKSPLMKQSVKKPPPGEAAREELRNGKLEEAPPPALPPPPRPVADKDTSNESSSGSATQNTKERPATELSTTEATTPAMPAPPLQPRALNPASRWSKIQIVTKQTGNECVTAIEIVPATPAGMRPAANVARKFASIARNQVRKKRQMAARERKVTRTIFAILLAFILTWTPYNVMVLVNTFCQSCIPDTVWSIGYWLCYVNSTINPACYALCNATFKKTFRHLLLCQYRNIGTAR
# assay.summary: Alphascreen Surefire phospho-ERK1/2 functional assay, M4
# Type: cell-based
# condition: CHO, read-out: % Emax cf. ACh, M4, CHO cells stably expressing human M4; Emax relative to ACh
measurement.type: Emax (%)
# unit: % | format: bare number

Observe how each entry below is paired with its result.
compound	measurement.type	unit.string	quantitative.result
CCOC(=O)N1CCC2(CC(N3CC(OC(=O)N(CC)CC)C3)C2)C1 (single isomer, unassigned) [Example 4-2 Isomer 2]	Emax	%	89
CCOC(=O)N1CC2CCC1CC2N1CC(OC(=O)N2CCCOCC2)C1 (single isomer, unassigned) [Example 6-5 Isomer 1]	Emax	%	27
CCOC(=O)N1CC2CCC1CC2N1CC(CC(=O)N2CCCOCC2)C1 (single isomer, unassigned) [Example 2-4 Isomer 1]	Emax	%	9
CCOC(=O)N1CC2CCC1CC2N1CC(OC(=O)N(CC)CC)C1 (single isomer, unassigned) [Example 6-1 Isomer 1]	Emax	%	9

I have this compound here, CCOC(=O)N1CC2CCC1CC2N1CC(OC(=O)N2CCCCC2)C1 (single isomer, unassigned) [Example 6-3 Isomer 1] , and I need its recorded Emax.
35

Could you share which Emax value was measured for CCOC(=O)N1CC2CCC1CC2N1CC(CC(=O)N(CC)C(C)C)C1 (single isomer, unassigned) [Example 2-2 Isomer 1] ?
36

# query: Emax of entry CCOC(=O)N1CCC2(CC(N3CC(OC(=O)N4CCCOCC4)C3)C2)C1 (single isomer, unassigned) [Example 4-3 Isomer 2]
46

Any idea what its Emax is? The compound is CCOC(=O)N1CC2(CCC(N3CC(OC(=O)N(C)CC)C3)C2)C1 (single isomer, unassigned) [Example 4-4 Isomer 1]
37

Consider the compound shown here: `CCOC(=O)N1CC2(CC(N3CC(OC(=O)N(CC)CC)C3)C2)C1` What is its recorded Emax?
57

Given the entry CCOC(=O)N1CC2CCC1CC2N1CC(CC(=O)N(CC)CC)C1 (single isomer, unassigned) [Example 2-1 Isomer 1] , report its measured Emax.
9

Which value of Emax has been reported for CCOC(=O)N1CC2CCC1CC2N1CC(CC(=O)N2CCC23CCC3)C1 (single isomer, unassigned) [Example 2-5 Isomer 1] in the records?
23

---

Reported EC50 values follow for various compounds
# tested.system: human muscarinic M2 receptor (Homo sapiens, UniProt P08172)
# assay.summary: Alphascreen Surefire phospho-ERK1/2 functional assay, M2
# Type: cell-based
# condition: CHO cells stably expressing human M2; agonist 5 min, 37° C.; read-out: pEC50 M2 (converted)

compound	result
CCOC(=O)N1CC2(CCC(N3CC(OC(=O)N4CCCOCC4)C3)C2)C1 (single isomer, unassigned) [Example 4-9 Isomer 1]	> 20 µM

Form field - read-out: EC50; system: human muscarinic M2 receptor (Homo sapiens, UniProt P08172); submitted item: CCOC(=O)N1C2CCC1CC(N1CC(CC(=O)N3CCCCC3)C1)C2 (mixture of isomers) [Example 1-4 Isomer mixture]
> 20 µM

Observed EC50 on human muscarinic M2 receptor (Homo sapiens, UniProt P08172) for CCOC(=O)N1C2CCC1CC(N1CC(CC(=O)N(CC)CC)C1)C2 (single isomer, unassigned) [Example 1-1 Isomer 2] , please.
1.26 µM

---

// reported log10 EC50 per item
# tested.system: UniProt P11229
# Sequence (P11229 1-460): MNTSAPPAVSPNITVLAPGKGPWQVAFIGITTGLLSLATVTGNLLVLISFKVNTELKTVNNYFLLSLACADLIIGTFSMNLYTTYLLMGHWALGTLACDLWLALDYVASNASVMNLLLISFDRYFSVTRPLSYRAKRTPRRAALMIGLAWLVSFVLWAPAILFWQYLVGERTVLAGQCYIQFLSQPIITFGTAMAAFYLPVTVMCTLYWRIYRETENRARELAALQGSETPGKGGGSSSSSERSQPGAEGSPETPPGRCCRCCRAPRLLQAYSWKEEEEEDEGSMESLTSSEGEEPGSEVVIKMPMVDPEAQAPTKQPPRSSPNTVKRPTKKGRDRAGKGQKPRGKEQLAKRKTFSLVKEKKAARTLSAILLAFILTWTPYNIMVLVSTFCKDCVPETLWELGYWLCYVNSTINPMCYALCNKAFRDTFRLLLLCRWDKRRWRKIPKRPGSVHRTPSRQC
# assay.summary: Alphascreen Surefire phospho-ERK1/2 functional assay, M1
# Assay type: cell-based
# condition: CHO cells stably expressing human M1; agonist 5 min, 37° C.; read-out: pEC50 M1 (converted)
Base-10 log of EC50, unit nM.

Past entries and their recorded results:
molecule	log10 EC50
CCOC(=O)N1CCC2(CC(N3CC(OC(=O)N(CC)CC)C3)C2)C1 (single isomer, unassigned) [Example 4-2 Isomer 2]	2.20
CCOC(=O)N1CC2(CCC(N3CC(OC(=O)N(C)CC)C3)C2)C1 (single isomer, unassigned) [Example 4-4 Isomer 1]	1.77
CCOC(=O)N1C2CCCC1CC(N1CC(CC(=O)N3CCCC3)C1)C2 (single isomer, unassigned) [Example 3-2 Isomer 1]	3.68
CCOC(=O)N1CC2CCC1CC2N1CC(CC(=O)N(CC)CC)C1 (single isomer, unassigned) [Example 2-1 Isomer 1]	2.32
CCOC(=O)N1CC2CCC1CC2N1CC(CC(=O)N(CC)C(C)C)C1 (single isomer, unassigned) [Example 2-2 Isomer 2]	2.36

Which log10 EC50 value is on record for CCOC(=O)N1CC2CCC1CC2N1CC(CC(=O)N2CCCOCC2)C1 (single isomer, unassigned) [Example 2-4 Isomer 1] ?
3.01

Which log10 EC50 value belongs to CCOC(=O)N1CC2CCC1CC2N1CC(CC(=O)N(CC)C(C)C)C1 (single isomer, unassigned) [Example 2-2 Isomer 1] ?
1.28
